# Test system: HOP-92 NSCLC
# procedure.text: NCI-60 one-dose screen, 48 h
# study.conditions: 10 µM unless noted
About 83,000 compounds went through this panel and 20% of them were active in at least one assay; those are over-represented in the sample as a whole. Active and inactive are the calls of the source. How the source made its calls: active means growth percent below 10; inactive means the rest.
Classes used: TRUE = active, FALSE = inactive

>  <compound>
COC(=O)[C@H](NC(=O)C1(C)CCC[C@]2(C)[C@H]3C[C@H]4C(C(C)C)=C[C@]3(CC[C@@H]12)[C@@H]1C(=O)CCC(=O)[C@@H]14)C(C)C (some centres undefined)

>  <category>
FALSE

$$$$
>  <compound>
COc1cc(CNC(=O)Cc2ccccc2)ccc1OCc1cn(-c2ccc(F)cc2)nn1

>  <category>
FALSE

$$$$
>  <compound>
O=C(N/N=C/c1ccccc1O)C(=O)Nc1ccc(F)cc1

>  <category>
FALSE

$$$$
>  <compound>
COc1ccc(-c2nc(-c3ccccn3)c(-c3ccccn3)n2CC(C)C)cc1OC1CCCC1

>  <category>
FALSE

$$$$
>  <compound>
CNCCNc1nc2ccccc2c2c(=O)c3cc(F)ccc3sc12

>  <category>
FALSE

$$$$
>  <compound>
O=c1oc2ccc(I)cc2c(=O)n1-c1ccc(F)cc1F

>  <category>
TRUE

$$$$
>  <compound>
O=C1NC(=S)NC(=O)C1=Cc1cn(Cc2cn(Cc3cccc4ccccc34)nn2)c2ccccc12

>  <category>
FALSE

$$$$
>  <compound>
C1=CC2(C=C1)OC21CCC2(C=CC3(C2)OC3C2CCCCC2)CC1 (centres undefined)

>  <category>
FALSE

$$$$
>  <compound>
COc1ccc2occ(C3=C(c4c[nH]c5ccccc45)C(=O)NC3=O)c2c1

>  <category>
FALSE

$$$$
>  <compound>
CCN1CCN(c2cc(C)c3cc(NC(=O)c4ccc(OC)c(OC)c4)ccc3n2)CC1

>  <category>
FALSE

$$$$
>  <compound>
FC(F)(F)c1cccc(Nc2nc3ccccc3nc2Nc2cccc(C(F)(F)F)c2)c1

>  <category>
TRUE

$$$$
>  <compound>
O=S1(=O)N(Cc2ccccc2)[C@@H](Cc2ccccc2)[C@H](O)[C@H](O)[C@H](Cc2ccccc2)N1Cc1ccccc1

>  <category>
TRUE

$$$$
>  <compound>
COc1ccc(C(O)(CCC(C)C)C(CN2CCOCC2)c2ccc(Cl)cc2)cc1 (centres undefined)

>  <category>
FALSE

$$$$
>  <compound>
COc1ccc(Cn2c(Br)c3c(c2Br)-c2nc(N)sc2CC3)cc1

>  <category>
FALSE

$$$$
>  <compound>
CCOC(=O)c1cc2c(n1Cc1cc(OC)c(OC)c(OC)c1)-c1oncc1CCC2

>  <category>
FALSE

$$$$
>  <compound>
COc1cc(-c2c3c(cn2S(=O)(=O)c2ccccc2)-c2nc(N)sc2CC3)cc(OC)c1OC

>  <category>
FALSE

$$$$
>  <compound>
CC/C=C\C[C@H](O)C/C=C1/C(=O)C=C[C@@H]1C/C=C\CCCC(=O)OCCS(=O)(=O)c1ccccc1

>  <category>
FALSE

$$$$
>  <compound>
COc1ccccc1C(=O)O/N=C(\N)Cc1cccc2ccccc12

>  <category>
FALSE

$$$$
>  <compound>
COc1ccc(N)c(-c2cc3c(c4c2[nH]c2ccc(OC)cc24)CCCC3)c1

>  <category>
FALSE

$$$$

src = PubChem BioAssay (NCI)
